Biological target: Tyrosyl-DNA phosphodiesterase 1 (Homo sapiens)
Test: Confirmation Assay for Inhibitors of Tyrosyl-DNA Phosphodiesterase (TDP1) (AID 489007); note: potency is the fitted concentration of half-maximal effect; nearly all actives have a fitted effect of over 40% in size
Settings: recombinant human TDP1 enzymatic activity, dose-response
Records with an inconclusive call do not appear. Active and inactive are the calls of the source. Calls come from the whole dose curve; as a rule, active = well fitted inhibition curve with a large enough effect; inconclusive = small, poorly fitted or top-dose-only effect; inactive = flat fitted curve, though single readings scatter.
Measured Potency accompanies every entry in the list below.

COMPOUND | Potency
Nc1ccc(N)c(C(=O)O)c1 | 0.199 µM (active)
O=C(O)C1CC=CCC1C(=O)Nc1ccccc1 (stereo unspecified) | 14.1 µM (active)
O=C(O)c1ccc(-c2ccc(/C=C3\NC(=O)N(Cc4ccc(Cl)cc4)C3=O)o2)cc1 | 14.1 µM (active)
COc1ccc(-n2cccc2/C=C2\C(=N)N3N=C(c4ccco4)SC3=NC2=O)cc1 | 14.1 µM (active)
Cc1c(-c2ccc(Cl)cc2)oc(=O)c2c(N)n(-c3ccccc3)nc12 | 25.1 µM (active)
O=C(O)c1cccc(-n2cccc2/C=C2/NC(=O)N(Cc3ccccc3F)C2=O)c1 | 8.91 µM (active)
Cc1ccc(S(=O)(=O)N(CC(=O)O)Cc2ccco2)cc1 | 20 µM (active)
Cc1ccc(NC(=O)CN2C(=O)S/C(=C\c3ccc(-c4cccc(C(=O)O)c4C)o3)C2=O)cc1 | 11.2 µM (active)
Cc1ccc(Oc2cc(-n3nc(C)cc3C)ncn2)cc1 | 112 µM (active)
CC(C)CN(C(=O)COC(=O)c1cc2c(s1)CCC2)C1CCS(=O)(=O)C1 (stereo unspecified) | 44.7 µM (active)
CCc1oc(C(=O)O)cc1COC | 31.6 µM (active)
Cc1ccc(CN2C(=O)N/C(=C\c3ccc(-c4ccc(C(=O)O)cc4C)o3)C2=O)cc1 | 7.94 µM (active)
Cc1ccnc(NS(=O)(=O)c2ccc(NC(=O)C3C4C=CC(C4)C3C(=O)O)cc2)n1 (stereo unspecified) | 35.5 µM (active)
O=C(O)c1ccc2ncsc2c1 | 39.8 µM (active)
O=C(O)c1cc(-c2ccc(/C=C3\NC(=O)N(c4ccccc4)C3=O)o2)ccc1Cl | 7.08 µM (active)
CCN(CC)C(=O)CC(c1ccc(OC)cc1)c1c(OC)cc(OC)c2c(-c3ccccc3)cc(=O)oc12 (stereo unspecified) | 2.24 µM (active)
CC1=N/C(=C/c2ccco2)C(=O)O1 | 3.55 µM (active)
O=S(=O)(O)c1ccc2c(c1)-c1nc-2nc2[nH]c(nc3nc(nc4[nH]c(n1)c1ccc(S(=O)(=O)O)cc41)-c1ccc(S(=O)(=O)O)cc1-3)c1ccc(S(=O)(=O)O)cc21 | 0.0282 µM (active)
O=C(N/N=C/c1ccc2c(c1)OCO2)c1cc2ccccc2o1 | 12.6 µM (active)
O=C(COC(=O)c1cc2c(s1)CCC2)Nc1ccc(F)cc1 | 12.6 µM (active)
O=C(O)CCCN1C(=O)/C(=C\c2ccco2)SC1=S | 2.82 µM (active)

----------
Tested on: CP203
Assay: qHTS profiling for inhibitors of Plasmodium falciparum proliferation (AID 504749); note: nearly all actives have a fitted effect of over 60% in size
Conditions: P. falciparum in erythrocytes, SYBR Green DNA, 72 h; series mostly up to 28.7 µM
Inconclusive results are not listed. Active and inactive are the calls of the source. Calls come from the whole dose curve; as a rule, active = well fitted inhibition curve with a large enough effect; inconclusive = small, poorly fitted or top-dose-only effect; inactive = flat fitted curve, though single readings scatter.
Outcomes: 1 for active, 0 for inactive

COMPOUND | CATEGORY
O=C1[C@@H]2C[C@@H]3C[C@H]1C[C@@](O)(C3)C2 | 0
C=CCn1c(=O)n(C2OC(CO)C(O)C2O)c2nc(N)[nH]c(=O)c21 (centres undefined) | 0
CCC(C(=O)O)C1OC(C(C)C(O)C(C)C(=O)C(CC)C2OC3(C=CC(O)C4(CCC(C)(C5CCC(O)(CC)C(C)O5)O4)O3)C(C)CC2C)C(C)CC1C (centres undefined) | 1
CCC(C(=O)C(C)C(O)C(C)CCc1ccc(C)c(O)c1C(=O)O)C1OC(CC)(C2CC[C@@](O)(CC)C(C)O2)CC1C (some centres undefined) | 1
CC(O)C1CCC2C3CCC4CC(O)CCC4(C)C3CCC12C (centres undefined) | 0
CC1=C(c2ccc(NN=C(C#N)C#N)cc2)NNC(=O)C1 | 0
O=C(O)c1ccccc1-c1c2ccc(=O)cc-2oc2cc(O)ccc12 | 0
CC(=O)OCC(=O)[C@@]1(O)CCC2C3C[C@H](C)C4=CC(=O)C=CC4(C)C3C(O)CC21C (some centres undefined) | 0
CCCCC/C(C=O)=C/c1ccccc1 | 0

----------
Test: qHTS assay for small molecule agonists of the antioxidant response element (ARE) signaling pathway measured by Nrf2-dependant transcriptional activity (AID 720636);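 for activation: HepG2 cells with an ARE-driven luciferase reporter; % of control where 0% means no effect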
Conditions: ARE-luc HepG2, Nrf2 luciferase reporter, 16 h; series mostly up to 92.4 µM
Results filed as inconclusive are left out. Active and inactive are the calls of the source. Calls come from the whole dose curve; as a rule, active = well fitted activation curve with a large enough effect in the repeat runs; inconclusive = weak or mixed curves; inactive = flat fitted curve, though single readings scatter.
Outcomes: active, inactive

SMILES STRUCTURE | CATEGORY
C=CC(=O)OCCOCCOC(=O)C=C | active
O=C1OC2(c3cc(Br)c(O)c(Br)c3Oc3c2cc(Br)c(O)c3Br)c2c(Cl)c(Cl)c(Cl)c(Cl)c21 | inactive
O=C=Nc1ccc(Cc2ccc(N=C=O)cc2)cc1 | inactive
ClC1=C(Cl)C(Cl)(Cl)C(Cl)=C1Cl | inactive

----------
Assay: Stat Signaling Pathway (AID 446);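 note: ME-180 cervical cancer cells given 40 pM IL-6 alongside compound; SIE-controlled beta-lactamase reporter measured as 460/530 nm FRET emission ratio; % is set by controls: 0 for no effect and ±100 for the full control effect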
Settings: ME-180 (cervical carcinoma) SIE beta-lactamase reporter, IL-6 stimulated, 5 h; at 17.2 µM (top of the series) unless noted
Protocol: NCGC Assay Overview: The IL-6/STAT signaling pathway was assayed in ME-180 cervical carcinoma cells by a beta-lactamase reporter gene controlled by a STAT Inducible Element (SIE). This reporter is induced by IL-6 at 40 pM AC50 and inhibited by the pan JAK inhibitor, 2-(1,1-Dimethylethyl)-9-fluoro-3,6-dihydro-7H-benz[h]-imidaz[4,5-f]isoquinolin-7-one, at approximately 10 nM AC50. Plated cells were incubated overnight and on the following day, stimulated with 40 pM IL-6 for 5 hrs. […]
Records with an inconclusive call do not appear. Calls of active or inactive are those of the source. The call rests on the fitted dose curve; in most records, active means well fitted curve in either direction with a large enough effect (not every such curve was filed as active); inconclusive means small, poorly fitted or top-dose-only effect, or another doubt; inactive means flat fitted curve, though single readings scatter.
Measured activity, negative = inhibition accompanies every entry in the list below.
PROPERTY: activity, negative = inhibition

COMPOUND | PROPERTY | RESULT
CO[C@H]1C=CO[C@@]2(C)Oc3c(C)c(O)c4c(O)c(c(C=NN5CCN(C)CC5)c(O)c4c3C2=O)NC(=O)C(C)=CC=C[C@H](C)[C@H](O)[C@@H](C)[C@@H](O)[C@@H](C)[C@H](OC(C)=O)[C@@H]1C | activity, negative = inhibition | 1.14% (inactive)
COc1ccc(/C(O)=C2/C(=O)C(=O)N(CCCN(C)C)C2c2cccc(Cl)c2)cc1OC (centres undefined) | activity, negative = inhibition | 3.83% (inactive)
O=C(C[N+]12CN3CN(CN(C3)C1)C2)c1ccc(-c2ccccc2)cc1 | activity, negative = inhibition | 0.439% [at 7.69 µM] (inactive)
CCOC(=O)c1cc2c(=O)n3ccccc3nc2n(Cc2ccccc2Cl)c1=N | activity, negative = inhibition | 2.43% (inactive)
CCNC(=O)[C@@H]1O[C@@H](n2cnc3c(N)nc(NCCc4ccc(CCC(=O)O)cc4)nc32)[C@H](O)[C@@H]1O | activity, negative = inhibition | 22.6% [at 38 µM] (inactive)
O=C(NCCN1CCOCC1)c1ccc(=O)oc1 | activity, negative = inhibition | 4.33% (inactive)
N#C[C@@H](Cc1ccc(O)c(O)c1)C(=O)N1CCc2ccccc21 | activity, negative = inhibition | 26% [at 38 µM] (inactive)
CN(C=C1C(=O)CC(C)(C)CC1=O)CCN1CCNCC1 | activity, negative = inhibition | 4.61% (inactive)
Cc1c(C2CC(=O)N(c3ccccc3)C2=O)[nH]n(-c2ccccc2)c1=O (centres undefined) | activity, negative = inhibition | 1.65% (inactive)

----------
Experiment: qHTS Assay for Identification of Small Molecule Antagonists for NFkB Signaling Pathway (AID 895)
Conditions: NFkB beta-lactamase reporter cells, FRET ratio 460/530, stimulated with 10 pM TNF alpha; series mostly up to 38.3 µM
Protocol: NIH Molecular Libraries Screening Centers Network [MLSCN] NIH Chemical Genomics Center [NCGC] The TNF alpha/NFkB signaling pathway was assayed in NFkB-bla cells (Invitrogen), a ME-180 cervical carcinoma line containing a stably integrated beta-lactamase reporter gene controlled by a NFkB response element. […] The assay was screened at the EC50 of TNF alpha activation to identify inhibitors of TNF alpha/NFkB signaling. NCGC Assay Protocol Summary: […]
Records with an inconclusive call do not appear. The source made the active and inactive calls. The call rests on the fitted dose curve; in most records, active means well fitted inhibition curve with a large enough effect in the signal ratio, with a control signal flat (not every such curve was filed as active); inconclusive means small, poorly fitted or top-dose-only effect, or effect the other way, or a change in a side signal; inactive means flat fitted curve, though single readings scatter; the % refers to the signal ratio.
Outcomes: active, inactive

SMILES STRUCTURE | CATEGORY
OC[C@@H]1O[C@@H](n2cnc3c(Nc4ccccc4)ncnc32)[C@@H](O)[C@H]1O | active
O=C(O)[C@@H]1CCCN[C@H]1C(=O)O | inactive
CC(=O)O[C@@H]1[C@H]([N+]2(C)CCCCC2)C[C@@H]2[C@@H]3CC[C@@H]4C[C@@H](OC(C)=O)[C@H]([N+]5(C)CCCCC5)C[C@@]4(C)[C@H]3CC[C@]21C | inactive
CCNC(=O)[C@@H]1O[C@@H](n2cnc3c(N)nc(NCCc4ccc(CCC(=O)O)cc4)nc32)[C@H](O)[C@@H]1O | inactive
